# assay summary: Pharmacokinetic experiments in rats (IV, oral suspension, oral solution)
# Type: in vivo
# recorded conditions: male, rat, plasma, po, 20 mg/kg, Group 3, PO-Suspension 20 mg/kg, Mean N=2, read-out: T ½ (converted)
endpoint: half-life (min)
Your answer should be a plain number; it is taken to be in min.

*Q* Find the measured half-life of O=C(NNc1nc2cc(F)ccc2n2cccc12)c1cnccn1.O=C(O)C(=O)O and report it.
*A* 72

###

# assay summary: Pharmacokinetic experiments in rats (IV, oral suspension, oral solution)
# Assay type: in vivo
# recorded conditions: male, rat, plasma, oral, 20 mg/kg, Group 3, PO-Suspension 20 mg/kg, 1 hr, individual animals
endpoint: concentration at 1 h (ng/mL)
Respond numerically; units are ng/mL and should not be typed.

*Q* Give a short answer stating reported concentration at 1 h for O=C(NNc1nc2cc(F)ccc2n2cccc12)c1cnccn1.O=C(O)C(=O)O .
*A* 525
